Target: Aspartate--tRNA(Asp/Asn) ligase (Mycobacterium tuberculosis (strain ATCC 25618 / H37Rv)) (UniProt P9WFW3)
Sequence (whole entry): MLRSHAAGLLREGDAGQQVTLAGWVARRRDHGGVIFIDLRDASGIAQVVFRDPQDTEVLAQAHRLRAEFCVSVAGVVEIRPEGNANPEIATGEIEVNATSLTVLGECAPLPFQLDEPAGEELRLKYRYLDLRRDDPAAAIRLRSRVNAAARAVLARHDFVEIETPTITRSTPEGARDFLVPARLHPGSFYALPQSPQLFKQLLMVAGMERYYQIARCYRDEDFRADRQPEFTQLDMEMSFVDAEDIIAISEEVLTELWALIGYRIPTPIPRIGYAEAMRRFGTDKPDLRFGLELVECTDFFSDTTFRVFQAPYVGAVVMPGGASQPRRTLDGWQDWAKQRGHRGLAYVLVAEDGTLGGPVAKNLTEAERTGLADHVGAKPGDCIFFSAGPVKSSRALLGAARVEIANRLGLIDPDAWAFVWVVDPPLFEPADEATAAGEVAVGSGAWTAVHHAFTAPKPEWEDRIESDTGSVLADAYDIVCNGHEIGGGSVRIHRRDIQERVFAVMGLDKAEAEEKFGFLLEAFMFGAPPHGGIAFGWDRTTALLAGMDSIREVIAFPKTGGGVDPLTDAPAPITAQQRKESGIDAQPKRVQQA
Assay: Assay for Asp RNA synthetase-1 from Mycobacterium tuberculosis
Type: functional
Set-up: scale not given: in the data most compounds retested in dose-response had high values
Conditions: 30 µM
Percent Effect for assorted compounds
Respond numerically; units are % and should not be typed.

compound	unit label	observed result
CCc1nnc2n1CCN(C(=O)c1csc(-c3cnn(C)c3)n1)C2	%	0.836
CCC1CN(CC(=O)N2CCC2)CCN1CCOC (stereo not drawn)	%	7.2
COc1ccc(C2=CCN(C(=O)CN(C)Cc3ccoc3)CC2)cc1	%	-8.11
Cn1nccc1CNC(=O)Nc1cc(C(F)(F)F)c[nH]c1=O	%	0.5
Cc1n[nH]c(C2CN(C(=O)Cn3ccccc3=O)CCO2)n1 (stereo not drawn)	%	-3.22
CCc1nc2n(n1)CC(NCC(=O)Nc1ccc(Cl)cn1)CC2 (stereo not drawn)	%	0.314
Cc1noc(C)c1C(=O)N1CC[C@H]2C[C@@H](c3ccncn3)O[C@@H]2C1	%	2.79
Cc1cnccc1CN1C[C@@H](O)[C@H](Oc2ccccc2)C1	%	0.283
O=C([C@H]1C[C@H]2OCC[C@H]2N(C(=O)C2CCOCC2)C1)N1CCCCO1	%	0.757
O=C(Cc1csc(-c2ccco2)n1)N1CCN(CCO)CC1	%	-0.16

IN: Field request: Percent Effect | item: O=C(O)c1cc(-c2cccnc2)cc(S(=O)(=O)N2CCCCCC2)c1
OUT: -3.5

IN: Field request: Percent Effect | item: CCc1nc2n(n1)CC(NCc1ncc(-c3ccccc3)o1)CC2 (stereo not drawn)
OUT: 0.562

IN: Field request: Percent Effect | item: COCCN1CCCC(c2nc3c([nH]2)CC(C)(C)CNC3=O)C1 (stereo not drawn)
OUT: 2.91

----------
molecular target: Aspartate--tRNA(Asp/Asn) ligase (Mycobacterium tuberculosis (strain ATCC 25618 / H37Rv)) (UniProt P9WFW3); assay: Assay for Asp RNA synthetase-1 from Mycobacterium tuberculosis; assay type: functional; parameters: scale not given: in the data most compounds retested in dose-response had high values; details: 30 µM
reported metric: Percent Effect (%)
Respond numerically; units are % and should not be typed.

Answered cases to consult:
compound	observed result
O=C(NCc1cc[nH]n1)N1CCN(c2ccccc2Cl)CC1	0.562
CO[C@H]1CCN(C(=O)Cc2ccccn2)[C@H]1Cc1ccncc1	3.54
CC(O)CN1CCC(CNCc2ccccc2OC(F)(F)F)CC1 (stereo unspecified)	-1.43
CC(C)(C)C(=O)NCCC(=O)NC(C)(C)c1ccc2c(c1)OCCO2	1.41

IN: Field request: Percent Effect | item: Cc1cnn(CC2CCCN2C(=O)c2cc3ccccc3[nH]2)c1 (stereo unspecified)
OUT: 1.27

IN: Field request: Percent Effect | item: CCc1cc(N[C@H]2CC[C@H](O)CC2)n2nc(C)c(C)c2n1
OUT: 1.45

IN: Field request: Percent Effect | item: OC[C@H]1CC[C@]2(CC1)CN(Cc1ccccc1F)Cc1ccccc1O2
OUT: -2.81

IN: Field request: Percent Effect | item: O=C(c1ccoc1)N1CC[C@@H]2[C@H]1CCC(=O)N2c1ccccc1
OUT: 1.49

IN: Field request: Percent Effect | item: Cc1nsc(NC(=O)N2CCN(Cc3ccc(F)cc3)C(=O)C2)n1
OUT: 2.26

IN: Field request: Percent Effect | item: COc1ccnc(N2CCN(C(=O)c3csc(C4CC4)n3)CC2)n1
OUT: -0.494

IN: Field request: Percent Effect | item: NC(=O)c1ccc2c(c1)nc1n2CCN(Cc2ccco2)C1
OUT: 6.41
